- TARGET OR SYSTEM: fatty acyl CoA: cholesterol acyl transferase (ACAT) (Rattus norvegicus, UniProt O70536)
- Construct: The supernatant, containing the microsomal fraction, served as the source of the cholesterol-esterifying enzyme; from tissue; host or cells: rat adrenals, supernatant of 1,000 x g centrifugation containing the microsomal fraction
- Sequence (O70536 whole entry): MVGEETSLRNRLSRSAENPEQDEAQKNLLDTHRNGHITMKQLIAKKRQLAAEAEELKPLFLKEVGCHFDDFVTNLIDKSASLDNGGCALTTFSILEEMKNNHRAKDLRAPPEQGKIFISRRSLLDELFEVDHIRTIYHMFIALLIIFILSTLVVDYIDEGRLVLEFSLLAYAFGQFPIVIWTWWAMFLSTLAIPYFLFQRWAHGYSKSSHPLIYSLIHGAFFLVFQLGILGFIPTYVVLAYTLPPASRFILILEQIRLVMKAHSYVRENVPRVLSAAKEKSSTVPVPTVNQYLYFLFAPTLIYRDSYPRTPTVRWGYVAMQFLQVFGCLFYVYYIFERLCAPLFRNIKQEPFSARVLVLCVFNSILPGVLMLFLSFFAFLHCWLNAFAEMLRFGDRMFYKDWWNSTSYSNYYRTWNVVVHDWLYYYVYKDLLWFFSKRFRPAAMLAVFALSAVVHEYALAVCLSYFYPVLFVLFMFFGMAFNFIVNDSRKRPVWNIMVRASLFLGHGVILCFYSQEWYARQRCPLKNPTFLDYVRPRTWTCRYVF
- PROTOCOL: Inhibition of fatty acyl CoA:cholesterol acyl transferase (ACAT), rat adrenal enzyme
- Format: biochemical
- ASSAY SETUP: rat adrenal ACAT; final concentration 5.2 μg/ml; read-out: % Inhibition
- Procedure: The compounds of the present invention were assayed for two types of biological activity related to their potential use as antiatherosclerotic agents. […] The compounds were tested for their ability to inhibit ACAT according to the following procedure: rat adrenals were homogenized in 0.2M monobasic potassium phosphate buffer, pH 7.4, and centrifuged at 1,000 times gravity for 15 minutes at 5° C. […] The cholesteryl ester fraction was counted in a scintillation counter. […]
Measured inhibition at 5.2 µg/mL accompanies every entry in the list below.

Please review the following examples before continuing.
CCCCc1ccc(CN(Cc2ccccc2)C(=O)Nc2ccc(CCCC)cc2)cc1; 92%
CCCCCCCN(CCc1ccccc1)C(=O)Nc1ccc(Cl)cc1Cl; 91.8%

Ask: GET inhibition at 5.2 µg/mL where system = fatty acyl CoA: cholesterol acyl transferase (ACAT) (Rattus norvegicus, UniProt O70536) and item = CCCCCCCN(CCc1ccccc1)C(=O)Nc1ccc(F)cc1F
Reply: 94.1%

* * *

Measured pIC50 accompanies every entry in the list below.
- TARGET OR SYSTEM: fatty acyl CoA:cholesterol acyl transferase (ACAT) (Rattus norvegicus, UniProt Q7TQM4)
- Construct: the enzyme was derived from microsomes isolated from rat intestinal mucosal cells
- Sequence (Q7TQM4 whole entry): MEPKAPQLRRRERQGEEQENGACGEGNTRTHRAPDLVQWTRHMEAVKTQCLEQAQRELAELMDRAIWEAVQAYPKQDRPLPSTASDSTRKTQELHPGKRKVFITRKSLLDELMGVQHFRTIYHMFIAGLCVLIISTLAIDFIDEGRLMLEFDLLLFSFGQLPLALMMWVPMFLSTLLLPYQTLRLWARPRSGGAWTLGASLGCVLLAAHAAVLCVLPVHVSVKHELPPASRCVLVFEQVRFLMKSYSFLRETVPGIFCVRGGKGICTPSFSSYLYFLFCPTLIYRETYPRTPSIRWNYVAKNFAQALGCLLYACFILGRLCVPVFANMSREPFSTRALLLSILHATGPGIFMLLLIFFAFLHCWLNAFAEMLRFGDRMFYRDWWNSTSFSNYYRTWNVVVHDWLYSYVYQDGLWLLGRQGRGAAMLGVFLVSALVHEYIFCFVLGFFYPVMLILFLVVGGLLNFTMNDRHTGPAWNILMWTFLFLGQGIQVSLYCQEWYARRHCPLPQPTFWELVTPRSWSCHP
- PROTOCOL: Inhibition of ACAT from microsomes isolated from rat intestinal mucosal cells
Note on units: pIC50 is unitless, being -log10 of a concentration expressed in mol/L.

Ask: Please give the documented pIC50 of CCCCCCCN(Cc1ccc(CC(C)C(C)CC)cc1)C(=O)Nc1c(C)cc(Cl)cc1C (stereo not shown)
Reply: 7.70

Ask: Please give the documented pIC50 of CCCCCCCN(Cc1ccc(COCCC(C)C)cc1)C(=O)Nc1ccc(F)cc1F
Reply: 6.48

Ask: Please give the documented pIC50 of CCCCCCCN(Cc1ccc(CC2CCCC2)cc1)C(=O)Nc1ccc(F)cc1F
Reply: 6.85

Ask: Please give the documented pIC50 of CCCCCCCN(Cc1ccc(COCCC(C)C)cc1)C(=O)Nc1c(F)cc(F)cc1F
Reply: 6.74

Ask: Please give the documented pIC50 of CCCCCCCN(Cc1ccc(CC[S+]([O-])C(C)C)cc1)C(=O)Nc1ccc(F)cc1F (stereo not shown)
Reply: 6.66

Ask: Please give the documented pIC50 of CCCCCCCN(Cc1ccc(CC(=O)O)cc1)C(=O)Nc1ccc(F)cc1F
Reply: 4.62

Ask: Please give the documented pIC50 of CCCCCCCN(Cc1ccc(CC(=O)OC)cc1)C(=O)Nc1ccc(F)cc1F
Reply: 5.76

Ask: Please give the documented pIC50 of CCCCCCCN(Cc1ccc(CCCCSC(C)C)cc1)C(=O)Nc1ccc(F)cc1F
Reply: 5.49

* * *

- TARGET OR SYSTEM: fatty acyl CoA: cholesterol acyl transferase (ACAT) (Rattus norvegicus, UniProt O70536)
- Construct: The supernatant, containing the microsomal fraction, served as the source of the cholesterol-esterifying enzyme; from tissue; host or cells: rat adrenals, supernatant of 1,000 x g centrifugation containing the microsomal fraction
- PROTOCOL: Inhibition of fatty acyl CoA:cholesterol acyl transferase (ACAT), rat adrenal enzyme
- Assay type: biochemical
- ASSAY SETUP: rat adrenal ACAT; final concentration 5.2 μg/ml; read-out: % Inhibition
ASSAY ENDPOINT: inhibition at 5.2 µg/mL (%)
Give just the numeric value; % need not be written.

Please review the following examples before continuing.
CCCCN(Cc1c(Cl)cccc1Cl)C(=O)Nc1ccc(C)cc1C; 74.5
CCCCCCCCCCCCCCN(Cc1ccccc1)C(=O)Nc1ccc(C)cc1C; 80.3
CCCCN(Cc1ccccc1)C(=S)Nc1ccccc1 [1-Benzyl-1-(n-butyl)-3-phenyl thiourea]; 82.4
CCCCCCCN(CCc1ccccc1)C(=O)Nc1ccc(Cl)cc1C; 93.8
O=C(Nc1c(Cl)cc(Cl)cc1Cl)N(Cc1ccc(Cl)cc1)Cc1cccc2ccccc12; 77
CCCCCCOc1ccc(CN(CCCC)C(=O)Nc2c(C)cc(C)cc2C)cc1; 97.1
CCCCN(CCc1ccc(Cl)cc1)C(=O)Nc1ccc(C)cc1C; 93.3
CCCCc1ccc(CN(CCOCCO)C(=O)Nc2cc(C)c(C)cc2C)cc1; 85.9
CCCCOc1ccc(CN(Cc2ccccc2)C(=O)Nc2ccc(Cl)cc2Cl)cc1; 80

Next molecule, please.
Ask: Please give the documented inhibition at 5.2 µg/mL of CCCCN(Cc1ccccc1)C(=O)Nc1cccc(C(F)(F)F)c1
Reply: 85.7

* * *

- Tested on: cholesterol absorption
- PROTOCOL: Inhibition of cholesterol absorption in rats fed 1% cholesterol:0.5% cholic acid diet
- Assay type: in vivo, male Sprague-Dawley rats
- ASSAY SETUP: po, 336 h; rat; dose .03% of the diet, 2 weeks; read-out: SS (serum sterol), percentage of control values
Measured response vs control in vivo at 0.03 % accompanies every entry in the list below.
Give just the numeric value; % need not be written.

CCCCc1ccc(CN(CCCCCCC#N)C(=O)Nc2cc(C)c(C)cc2C)cc1; 48
Cc1cc(NC(=O)N(CCC(C)(C)C)Cc2ccccc2)c(C)cc1Cl; 55
CCCCc1ccc(CN(Cc2ccccc2)C(=O)Nc2cc(C)c(C)cc2C)cc1; 50

Ask: Please give the documented response vs control in vivo at 0.03 % of Cc1ccc(NC(=O)N(Cc2ccc(-c3ccccc3)cc2)Cc2ccc(Cl)c(Cl)c2)c(C)c1
Reply: 49

Ask: Please give the documented response vs control in vivo at 0.03 % of CCCCOc1ccc(CN(Cc2ccccc2)C(=O)Nc2ccc(C)cc2C)cc1
Reply: 48

* * *

- Tested on: cholesterol absorption
- PROTOCOL: Inhibition of cholesterol absorption in rats fed 1% cholesterol:0.5% cholic acid diet
- Format: in vivo, male Sprague-Dawley rats
- ASSAY SETUP: po, 336 h; rat; dose .03% of the diet, 2 weeks; read-out: SS (serum sterol), percentage of control values
- Description: Inhibition of cholesterol absorption was determined by feeding male Sprague-Dawley rats, weighing 150-170 g, a 1% cholesterol:0.5% cholic acid diet for 2 weeks. […] Blood was collected, centrifuged at […] for 10 minutes at 4° C.; and the serum was then analyzed for cholesterol and triglycerides enzymatically by the method of Trinder, P., Analyst, 77, 321 (1952) on a Centrifichem 400 analyzer. […]
ASSAY ENDPOINT: response vs control in vivo at 0.03 % (%)
Give just the numeric value; % need not be written.

Please review the following examples before continuing.
CC(C)(C)CCN(Cc1ccc(Cl)cc1)C(=O)Nc1ccc(C(F)(F)F)cc1; 85
CCCCCCCN(Cc1cccs1)C(=O)Nc1c(Cl)cc(Cl)cc1Cl; 56
CCCCCCCN(Cc1ccc(OCCCC)cc1)C(=O)Nc1ccc(Cl)cc1Cl; 68
CCCCc1ccc(CN(CCCCCCCl)C(=O)Nc2cc(C)c(C)cc2C)cc1; 40
CCCCc1ccc(CN(CCCCCCC#N)C(=O)Nc2c(Cl)cc(Cl)cc2Cl)cc1; 31
CC(C)(C)CCN(Cc1ccc(CC(C)(C)C)cc1)C(=O)Nc1c(Cl)cc(Cl)cc1Cl; 32
CC(C)(C)CCN(Cc1cccs1)C(=O)Nc1c(Cl)cc(Cl)cc1Cl; 58
Cc1cc(Cl)cc(C)c1NC(=O)N(CCC(C)(C)C)Cc1ccc(Cl)cc1; 46
CCCCOc1ccc(CN(Cc2ccccc2)C(=O)Nc2cc(Cl)c(Cl)cc2Cl)cc1; 66
CCCCc1ccc(CN(Cc2ccccc2)C(=O)Nc2ccc(C)cc2C)cc1; 41

Ask: Please give the documented response vs control in vivo at 0.03 % of CCCCCCCN(CCc1ccccc1)C(=O)Nc1ccc(Cl)cc1C(F)(F)F
Reply: 79

Ask: Please give the documented response vs control in vivo at 0.03 % of CCCCOc1ccc(CN(Cc2cccs2)C(=O)Nc2cc(C)c(C)cc2C)cc1
Reply: 41

Ask: Please give the documented response vs control in vivo at 0.03 % of CCCCc1ccc(CN(CCC(C)(C)C)C(=O)Nc2ccc(F)cc2F)cc1
Reply: 39

* * *

- Tested on: cholesterol absorption
- PROTOCOL: Inhibition of cholesterol absorption in rats fed 1% cholesterol:0.5% cholic acid diet
- Assay type: in vivo, male Sprague-Dawley rats
- ASSAY SETUP: po, 336 h; rat; dose .001% of the diet, 2 weeks; read-out: LS (liver sterol), percentage of control values
Measured response vs control in vivo at 0.001 % accompanies every entry in the list below.
Give just the numeric value; % need not be written.

CC(C)CCCCN(Cc1ccc(CCC(C)C)cc1)C(=O)Nc1c(F)cc(F)cc1F; 45

Ask: GET response vs control in vivo at 0.001 % where system = cholesterol absorption and item = CCCCCCCN(Cc1ccc(CCC(C)CC)cc1)C(=O)Nc1ccc(F)cc1F (stereo not shown)
Reply: 89

Ask: GET response vs control in vivo at 0.001 % where system = cholesterol absorption and item = CCCCCCCN(Cc1ccc(COCCC(C)C)cc1)C(=O)Nc1c(F)cc(F)cc1F
Reply: 75

Ask: GET response vs control in vivo at 0.001 % where system = cholesterol absorption and item = CCCCCCCN(Cc1ccc(CC(C)CCC)cc1)C(=O)Nc1c(F)cc(F)cc1F (stereo not shown)
Reply: 75

Ask: GET response vs control in vivo at 0.001 % where system = cholesterol absorption and item = Cc1cc(Cl)cc(C)c1NC(=O)N(CCCCC(C)C)Cc1ccc(CCC(C)C)cc1
Reply: 40

Ask: GET response vs control in vivo at 0.001 % where system = cholesterol absorption and item = CCCCCCCN(Cc1ccc(CC(CC)CCCC)cc1)C(=O)Nc1c(C)cc(Cl)cc1C (stereo not shown)
Reply: 87

Ask: GET response vs control in vivo at 0.001 % where system = cholesterol absorption and item = CCCCCCCN(Cc1ccc(OCCC(C)C)cc1)C(=O)Nc1c(C)cc(Cl)cc1C
Reply: 23

Ask: GET response vs control in vivo at 0.001 % where system = cholesterol absorption and item = CCCCCCCN(Cc1ccc(CC2CCC2)cc1)C(=O)Nc1c(F)cc(F)cc1F
Reply: 66

Ask: GET response vs control in vivo at 0.001 % where system = cholesterol absorption and item = CCCCCCCN(Cc1ccc(CC(CC)CC)cc1)C(=O)Nc1c(C)cc(Cl)cc1C
Reply: 94

Ask: GET response vs control in vivo at 0.001 % where system = cholesterol absorption and item = CCCCCCCN(Cc1ccc(C2CCCC2)cc1)C(=O)Nc1c(F)cc(F)cc1F
Reply: 58
